These data points were gathered from the nanobody polyreactivity screen of Harvey et al. (2022).

Experiment: yeast display, Sf9 membrane polyspecificity reagent, FACS + sequencing; frameworks hold sequencing errors
QUANTITY: polyreactivity (PSR sort gate)

CHAIN	polyreactivity (PSR sort gate)
QVQLVESGGGLVQAGGSLRLSCAASGSTFGVYAMGWYRQAPGKERELVAAIRWSSGSTYYADSVKGRFTISRDNAKNTVYLQMNSLKPEDTAVYYCAKTRGIYNIRFGYWGQGTQVTVSS	high polyreactivity
QVQLVESGGGLAQAGGSLRLSCAASGSTFLYYAMGWYRQAPGKERELVDAIDSGGSTYYADSVKGRFTISRDNAKNTVYLQMNSLKPEDTAVYYCNADFADHWPPNGPGAHDYWGQGTQVTVSS	low polyreactivity
QVQLVESGGGLVQAGGSLRLSCAASGSIFAGYAMGWYRQAPGKERELVATITSSSRTNYADSVKGRFTISRDNAKNTVYLQMNSLKPEDTAVYYCAARGRYVIDGYRMYYWGQGTQVTVSS	high polyreactivity
QVQLVESGGGLVQAGGSLRLSCAASGGTIVWNAMGWYRQAPGKEREFVAAITSSGGSTYYADSVKGRFTISRDNEKNTVYLQMNSLKPEDTAVYYCNVDTHSSYEFNSWGQGTQVTVSS	low polyreactivity

INPUT: Quick one: polyreactivity (PSR sort gate) for QVQLVESGGGLVQAGGSLRLSCAASGFIFAYYAMGWYRQAPGKERELVAAISSSGGSTYYADSVKGRFTISRDNAKNTVYLQMNSLKPEDTAVYFCNRRWVAPYFYSRYYSGQEEGYWGQGTQVTVSS ?
OUTPUT: high polyreactivity

----------
Experiment: yeast display, Sf9 membrane polyspecificity reagent, FACS + sequencing; frameworks hold sequencing errors
QUANTITY: polyreactivity (PSR sort gate)

Below are worked cases with known answers.
CHAIN	polyreactivity (PSR sort gate)
QVQLVESGGGLVQAGCSLRLSCAASGSTLSFNAMGWYRQAPGKERELVAGITYSGGSTYYADSVKGRFTISRDNAKNTVYLLMNSLKPEDTAFYYCNKACGVYYGHLDYWGQGTQVTVSS	low polyreactivity
QVQLVESCGGLVQAGGSLRLSCAASGRIFSYNPMGWYRQAPGKERELVATITSGDSTNYADSVKGRFTISRDNSKNSVYLQMNSLKQEDTAVYYCATDIYGLPVDYWGQGTQVSVSS	low polyreactivity
QLQLVESGGGLVQAGGSLRLSCAASGSTLDRYVMGWYRPAPGKERELVAAISRNGGSTYYADSVKGRFTISRDIAKNTVYLQMNSLKPEDTAVYYCAAYIYQSPTRGGGYWGQGTQVTVSS	high polyreactivity
QVQLVESGGGLVQAGGSLRLSCAASGSIISYYAMGWYRQAPGKERELVAAITASGGSTYYADSVKGRFTISRDNAKNTVYLQMNSLKPEDTAVYYCAAGTHTDYGRYYYWGQGTQVTVSS	low polyreactivity
QVQLEESGGGLVQAGGSLRLSCAASARTIFGYAMGWYRQAPGKERELVAAINWGGASTYYADSVKGRFTISRDNAKNTVYLQMNSLKPEDTAVYYCAADSVPSRPTYGRYDYWGQGTQVTVSS	low polyreactivity
QVQLVESGGGLVQAGGSLRLICAPSGITFYPYSMGWSRQAPGKERELVAAISGGTNTHYADSVKGRFTISRDNAKNTDYLQMNSLKPVDTAVYYCAAGIDFRRTTSYSFWFDYWGQGTQVTVSS	high polyreactivity
QVQLVESGGGLVQAGGSLRLSCAASGRTFYYYAMGWYRQAPGKEREYVASITWRGGRTYYADSVKGRFTISRDNAKNTVYLQMNSLKPEDTAVYYCAADGSYAIGGYGYWGQGTQVTVSS	high polyreactivity
QVQLVESGGGLVQAGGSIRLSCAASGFNFRWYAMGWYRQAPGKERELVAAIRSGGSTNYADSVKGRFTIARDNAKNTVSLQMNSLKPEDRAVYYCAAERTSYYYSNDYWGQGTQVTVSS	high polyreactivity
QVQLVESGGGLVQAGGSLRLSCAASGRIFRLYAMGWYRQAPGKEREFVATITWIGGRTYYADSVKGRFTISRDNAKNTVYLQMNSLKPEDTAVYYCAADPGYTYEYWGQGTQVTVSS	low polyreactivity
QDQLVESGGGLVQAGGSLRLSCAASGIISYKNVMGWYRQAPGKERELDAAITSGGSTNYADSVKGRFTISRDNAKNTVYLQMNSLKPEDTAVYYCAARYYGSYGKQPRARYGYWGQGTQVTVSS	high polyreactivity

INPUT: Quick one: polyreactivity (PSR sort gate) for QVQLVESGGGLFQAGGSLRLSCAASGSTFESNAMGWYRQAPGKERELVAAISSSGGSTYYADSVKGRFTISRDNAKNTVYLQMNSLKPEVTAVYYCNKGGLSYYDYWGQVTQVTVSS ?
OUTPUT: high polyreactivity
